The measurements presented in this section are drawn from ChEMBL document CHEMBL4261508.

species on record: Cavia porcellus; test: Displacement of [3H]-DTG from sigma2 receptor in guinea pig brain membranes at 1 uM after 120 mins in presence of sigma1 […] (+)-SKF10047 by microbeta scintillation counting method relative to control; format: cell membranes; conditions: Membrane
Items are presented alongside their recorded inhibition.
Note: unit % is implicit; provide only the numeric part.

As a guide, the following entries are already answered.
Fc1ccc(-c2ncnc3c2cnn3CCN2CCCCC2)cc1C(F)(F)F; 87
CC1(C)CCN(c2ncnc3c2cnn3CCN2CCCCC2)C1; 58
Cc1ccc(Cl)c(-c2ncnc3c2cnn3CCN2CCCCC2)c1; 95
Cc1ccccc1-c1ncnc2c1cnn2CCN1CCCCC1; 83
FC(F)(F)c1ccccc1-c1ncnc2c1cnn2CCN1CCCCC1; 86

Now for the molecule whose inhibition we want.
`FC1(F)CCN(c2ncnc3c2cnn3CCN2CCCCC2)CC1` has a reported inhibition of 67

###

assay: Stability of the compound assessed as drug degradation at pH 7.4; assay type: physicochemical; conditions: buffer
measured.metric: Stability

As a guide, the following entries are already answered.
Fc1ccc(-c2ncnc3c2cnn3CCN2CCCCC2)cc1C(F)(F)F; Stable
Cc1ccccc1-c1ncnc2c1cnn2CCN1CCCCC1; Stable
Cn1cccc1-c1ncnc2c1cnn2CCN1CCCCC1; Stable
Fc1ccc(-c2ncnc3c2cnn3CCN2CCCCC2)cc1; Stable
Cc1ccc(Cl)c(-c2ncnc3c2cnn3CCN2CCCCC2)c1; Stable

`Fc1ccc(-c2ncnc3c2cnn3CCN2CCCCC2)c(F)c1` has a reported Stability of Stable

###

biological target: Sigma non-opioid intracellular receptor 1 (Homo sapiens, UniProt Q99720); experiment: Displacement of [3H]-(+)-pentazocine from recombinant human sigma1 receptor expressed in HEK293 cell membranes after 120 mins by microbeta scintillation counting method
Sequence (Q99720 whole entry): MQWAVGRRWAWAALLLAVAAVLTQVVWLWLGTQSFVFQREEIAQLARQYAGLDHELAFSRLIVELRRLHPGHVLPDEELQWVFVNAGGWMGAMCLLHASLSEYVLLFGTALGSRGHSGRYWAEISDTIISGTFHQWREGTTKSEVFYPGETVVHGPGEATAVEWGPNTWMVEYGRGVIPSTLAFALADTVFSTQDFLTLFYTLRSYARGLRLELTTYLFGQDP
measured.metric: pKi
pKi field: float, defined as -log10 of concentration (mol/L).

Cc1ccc(C)c(-c2ncnc3c2cnn3CCN2CCCCC2)c1; 7.20
Cn1nc(C(F)(F)F)cc1-c1ncnc2c1cnn2CCN1CCCCC1; 6.86
Cc1ccccc1-c1ncnc2c1cnn2CCN1CCCCC1; 7.13
Fc1ccc(-c2ncnc3c2cnn3CCN2CCCCC2)c(F)c1; 7.03
Fc1ccc(-c2ncnc3c2cnn3CCN2CCCCC2)cc1; 7.02
c1ccc(-c2ncnc3c2cnn3CCN2CCCCC2)cc1; 7.00

`FC(F)(F)c1ccccc1-c1ncnc2c1cnn2CCN1CCCCC1` has a reported pKi of 6.90

`c1ccc2c(c1)ncn2-c1ncnc2c1cnn2CCN1CCCCC1` has a reported pKi of 6.95

`Clc1ccccc1-c1ncnc2c1cnn2CCN1CCCCC1` has a reported pKi of 7.12

`FC1(F)CCN(c2ncnc3c2cnn3CCN2CCCCC2)CC1` has a reported pKi of 6.97

`Cc1noc(C)c1-c1ncnc2c1cnn2CCN1CCCCC1` has a reported pKi of 7.14

`COc1ccc(-c2ncnc3c2cnn3CCN2CCCCC2)cn1` has a reported pKi of 4.42

`Cc1cccc(-c2ncnc3c2cnn3CCN2CCCCC2)c1` has a reported pKi of 7.09

`Cn1cnc(-c2ncnc3c2cnn3CCN2CCCCC2)c1` has a reported pKi of 4.93

`c1ccc2c(-c3ncnc4c3cnn4CCN3CCCCC3)cncc2c1` has a reported pKi of 6.18

`Fc1cc(Cl)ccc1-c1ncnc2c1cnn2CCN1CCCCC1` has a reported pKi of 6.95

###

species on record: Cavia porcellus; assay: Displacement of [3H]-DTG from sigma2 receptor in guinea pig brain membranes at 1 uM after 120 mins in presence of sigma1 […] (+)-SKF10047 by microbeta scintillation counting method relative to control; format: cell membranes; conditions: Membrane
Items are presented alongside their recorded inhibition.
Note: unit % is implicit; provide only the numeric part.

As a guide, the following entries are already answered.
Cc1cccc(-c2ncnc3c2cnn3CCN2CCCCC2)c1; 82
c1ccc(C2CCN(c3ncnc4c3cnn4CCN3CCCCC3)C2)cc1 (stereo not drawn); 71
Clc1ccccc1-c1ncnc2c1cnn2CCN1CCCCC1; 92

`CCOc1ccccc1-c1ncnc2c1cnn2CCN1CCCCC1` has a reported inhibition of 81

`c1ccc(-c2ncnc3c2cnn3CCN2CCCCC2)cc1` has a reported inhibition of 69

`c1nc(-c2cnsc2)c2cnn(CCN3CCCCC3)c2n1` has a reported inhibition of 40

`COc1cc(F)ccc1-c1ncnc2c1cnn2CCN1CCCCC1` has a reported inhibition of 87

`Cc1cc(F)ccc1-c1ncnc2c1cnn2CCN1CCCCC1` has a reported inhibition of 86

###

biological target: Sigma non-opioid intracellular receptor 1 (Homo sapiens, UniProt Q99720); assay: Displacement of [3H]-(+)-pentazocine from recombinant human sigma1 receptor expressed in HEK293 cell membranes after 120 mins by microbeta scintillation counting method
measured.metric: Ki (nM)
Note: unit nM is implicit; provide only the numeric part.

CNC1CCN(c2ncnc3c2cnn3CCN2CCCCC2)C1 (centres undefined); 25800
COc1ncccc1-c1ncnc2c1cnn2CCN1CCCCC1; 112
c1cc(-c2ncnc3c2cnn3CCN2CCCCC2)ccn1; 1720

Now for the molecule whose Ki we want.
`Clc1ccc(-c2ncnc3c2cnn3CCN2CCCCC2)cc1` has a reported Ki of 43
